# Assay System: recombinant human baculovirus-expressed GST-tagged FASN (Homo sapiens, UniProt P49327)
# Construct: GST
# Sequence (P49327 whole entry): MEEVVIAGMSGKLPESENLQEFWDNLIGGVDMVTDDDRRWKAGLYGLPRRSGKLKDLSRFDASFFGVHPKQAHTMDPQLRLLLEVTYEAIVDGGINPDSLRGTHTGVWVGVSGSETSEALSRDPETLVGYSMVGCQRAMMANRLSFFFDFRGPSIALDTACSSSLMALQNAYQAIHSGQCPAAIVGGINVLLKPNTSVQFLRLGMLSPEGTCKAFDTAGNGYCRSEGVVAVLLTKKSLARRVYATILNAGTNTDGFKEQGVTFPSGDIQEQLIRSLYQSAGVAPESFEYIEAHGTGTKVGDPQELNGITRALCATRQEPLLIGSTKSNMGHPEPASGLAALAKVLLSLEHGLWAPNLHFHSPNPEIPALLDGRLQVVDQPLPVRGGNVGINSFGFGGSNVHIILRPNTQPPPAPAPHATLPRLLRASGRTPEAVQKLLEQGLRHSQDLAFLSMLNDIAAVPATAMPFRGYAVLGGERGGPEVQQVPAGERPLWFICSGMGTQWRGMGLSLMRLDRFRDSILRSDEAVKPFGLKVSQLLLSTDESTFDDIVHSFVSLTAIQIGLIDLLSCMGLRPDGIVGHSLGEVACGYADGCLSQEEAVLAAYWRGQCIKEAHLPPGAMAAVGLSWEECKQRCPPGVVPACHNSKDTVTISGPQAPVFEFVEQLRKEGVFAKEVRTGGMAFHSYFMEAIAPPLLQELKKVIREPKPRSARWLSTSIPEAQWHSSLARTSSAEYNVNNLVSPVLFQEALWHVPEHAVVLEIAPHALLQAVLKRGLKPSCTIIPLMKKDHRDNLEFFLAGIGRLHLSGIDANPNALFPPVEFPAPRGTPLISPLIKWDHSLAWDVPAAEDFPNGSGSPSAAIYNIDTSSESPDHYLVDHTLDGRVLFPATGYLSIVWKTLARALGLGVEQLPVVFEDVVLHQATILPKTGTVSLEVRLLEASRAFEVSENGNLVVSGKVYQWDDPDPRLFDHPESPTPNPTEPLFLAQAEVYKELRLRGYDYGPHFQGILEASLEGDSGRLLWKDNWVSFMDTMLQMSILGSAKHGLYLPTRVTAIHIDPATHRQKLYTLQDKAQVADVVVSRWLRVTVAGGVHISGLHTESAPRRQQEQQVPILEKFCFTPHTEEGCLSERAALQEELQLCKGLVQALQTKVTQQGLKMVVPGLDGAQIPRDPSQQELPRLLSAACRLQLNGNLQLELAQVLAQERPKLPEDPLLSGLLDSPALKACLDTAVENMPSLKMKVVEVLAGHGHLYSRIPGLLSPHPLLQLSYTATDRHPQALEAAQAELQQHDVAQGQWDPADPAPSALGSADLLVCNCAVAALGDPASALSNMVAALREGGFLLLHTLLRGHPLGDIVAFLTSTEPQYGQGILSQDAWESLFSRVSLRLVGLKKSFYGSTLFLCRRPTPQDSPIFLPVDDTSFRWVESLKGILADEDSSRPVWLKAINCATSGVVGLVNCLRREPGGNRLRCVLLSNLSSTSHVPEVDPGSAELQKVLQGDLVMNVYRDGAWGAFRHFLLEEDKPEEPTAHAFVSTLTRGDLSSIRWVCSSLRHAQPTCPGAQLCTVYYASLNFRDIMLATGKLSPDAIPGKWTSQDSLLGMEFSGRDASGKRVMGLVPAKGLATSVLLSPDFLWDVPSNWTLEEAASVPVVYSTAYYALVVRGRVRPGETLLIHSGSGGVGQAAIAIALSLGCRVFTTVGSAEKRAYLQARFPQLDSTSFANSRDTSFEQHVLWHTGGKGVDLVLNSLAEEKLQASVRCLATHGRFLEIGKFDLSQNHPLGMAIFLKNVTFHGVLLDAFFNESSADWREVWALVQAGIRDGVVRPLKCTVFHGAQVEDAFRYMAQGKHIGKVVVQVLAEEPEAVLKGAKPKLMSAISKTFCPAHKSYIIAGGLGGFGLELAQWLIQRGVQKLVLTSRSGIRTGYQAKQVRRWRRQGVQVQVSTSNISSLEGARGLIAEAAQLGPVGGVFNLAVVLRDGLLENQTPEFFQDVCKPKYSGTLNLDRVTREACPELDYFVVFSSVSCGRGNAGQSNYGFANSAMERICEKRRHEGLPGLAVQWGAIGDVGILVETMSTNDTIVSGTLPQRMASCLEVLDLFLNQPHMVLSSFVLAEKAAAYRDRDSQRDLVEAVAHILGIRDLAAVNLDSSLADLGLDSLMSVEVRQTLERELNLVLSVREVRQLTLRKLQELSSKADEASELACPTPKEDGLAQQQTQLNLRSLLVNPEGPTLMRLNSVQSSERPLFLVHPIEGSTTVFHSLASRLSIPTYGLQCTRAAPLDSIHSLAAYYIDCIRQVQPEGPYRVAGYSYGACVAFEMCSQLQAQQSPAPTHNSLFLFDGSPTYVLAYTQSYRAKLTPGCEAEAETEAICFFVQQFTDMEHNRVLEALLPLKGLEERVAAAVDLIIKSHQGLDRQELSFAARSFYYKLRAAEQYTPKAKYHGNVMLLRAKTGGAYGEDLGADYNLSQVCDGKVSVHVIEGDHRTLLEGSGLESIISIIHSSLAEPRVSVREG
# Method Description: FASN enzyme activity assay, fluorescence-based detection of CoA with CPM
# Format: biochemical
# Measurement Conditions: 5 nM FASN, 150 μM NADPH, 10 μM acetyl-CoA, 25 μM malonyl-CoA, 90 minutes incubation; read-out: IC50 data for Compounds of Formulae I-V/V(a): Activity
Counter-ions that a name gives are not always drawn.
Outcome Measure: IC50

[[record]]
compound = "CC(C)(C)C(=O)N1CCC(Oc2ccc(-c3cnc4ccccc4c3)cc2)CC1 [Example 114, HCl]"
assay_system = "recombinant human baculovirus-expressed GST-tagged FASN (Homo sapiens, UniProt P49327)"
outcome_measure = "IC50"
test_value = "100 to 999 nM"

[[record]]
compound = "Cc1nc2ccc(-c3ccc(OC4CCN(C(=O)C5CC5)CC4)cc3)cn2c1C"
assay_system = "recombinant human baculovirus-expressed GST-tagged FASN (Homo sapiens, UniProt P49327)"
outcome_measure = "IC50"
test_value = "1000 to 10000 nM"

[[record]]
compound = "O=C(C1CC1)N1CCC(Oc2ccc(-c3ccc4cnc(Cl)cc4c3)cc2)CC1"
assay_system = "recombinant human baculovirus-expressed GST-tagged FASN (Homo sapiens, UniProt P49327)"
outcome_measure = "IC50"
test_value = "1000 to 10000 nM"


Enquiry: IC50 for O=C(C1CCC1)N1CCC(Oc2ccc(-c3ccc(N4CCOCC4)nc3)cc2)CC1 ?
Return: 1000 to 10000 nM

Enquiry: IC50 for CCC(=O)N1CCC(Oc2ccc(-c3cc(O)c4ccnn4c3)cc2)CC1 ?
Return: 1000 to 10000 nM

Enquiry: IC50 for O=C(C1CC1)N1CCC(Oc2ccc(-c3cnc4[nH]ccc4c3)cc2)CC1 ?
Return: 100 to 999 nM

Enquiry: IC50 for CC(=O)CC(=O)N1CCC(Oc2ccc(-c3cnc4ccccc4c3)cc2)CC1 ?
Return: 1000 to 10000 nM

Enquiry: IC50 for Cc1c(-c2ccc(OC3CCN(C(=O)C4CCCO4)CC3C)cc2)ccc2cccnc12 (stereo in doubt) [Example 377, TFA salt] ?
Return: 1 to 99 nM

Enquiry: IC50 for CCC(=O)N1CCC(Oc2ccc(-c3cnc4cccc(F)c4c3)cc2)CC1 ?
Return: 1 to 99 nM

Enquiry: IC50 for O=C(C1CC1)N1CCC(Oc2ccc(-c3ccc(-c4ccccc4)nc3)cc2)CC1 ?
Return: 1000 to 10000 nM

Enquiry: IC50 for CCC(=O)N1CCC(Oc2ccc(-c3cnc4ccccc4c3N)cc2)CC1 ?
Return: 1000 to 10000 nM

Enquiry: IC50 for Cc1nccc2cc(-c3ccc(OC4CCN(C(=O)[C@H]5CCCO5)CC4)cc3)ccc12 ?
Return: 1 to 99 nM

Enquiry: IC50 for O=C([C@H]1CCCO1)N1CCC(Oc2ccc(-c3ccc4cnc(C5CC5)cc4c3)cc2)CC1 ?
Return: 1 to 99 nM

Enquiry: IC50 for CN(C)c1c(-c2ccc(OC3CCN(C(=O)[C@H]4CCCO4)CC3)cc2)cnc2ccccc12 ?
Return: 1000 to 10000 nM

Enquiry: IC50 for COc1ccc2ncc(-c3ccc(OC4CCN(C(=O)C5CC5)CC4)cc3)cc2c1 ?
Return: 100 to 999 nM

Enquiry: IC50 for CCC(=O)N1CCC(Oc2ccc(-c3ccc4ccc(C)nc4c3F)cc2)CC1 ?
Return: 1000 to 10000 nM

Enquiry: IC50 for CCC(=O)N1CCC(Oc2ccc(-c3ccc4ccc(C)nc4c3)cc2)CC1 [Example 253, TFA salt] ?
Return: 1000 to 10000 nM

Enquiry: IC50 for CCC(=O)N1[C@@H]2CC[C@H]1C[C@@H](Oc1ccc(-c3ccc4cccnc4c3C)cc1)C2 [Example 369, HCl] ?
Return: 100 to 999 nM
